- Tested on: hERG (peak IKr)
- protocolSummary: hiPSC-CM β-escin-perforated voltage-clamp: peak IKr
- Assay type: cell-based, human
- experimentalContext: human
propertyLabel: potency estimated from few doses (nM)
Kindly provide the numeric value in nM only, without the unit symbol.

// potency estimated from few doses lookup, compound = CCN(CC)CCCC(C)Nc1ccnc2cc(Cl)ccc12 (stereo not shown) , result: 2960

====

- measuredTarget: hNav1.5 (Homo sapiens, UniProt Q14524)
- Sequence (Q14524 whole entry): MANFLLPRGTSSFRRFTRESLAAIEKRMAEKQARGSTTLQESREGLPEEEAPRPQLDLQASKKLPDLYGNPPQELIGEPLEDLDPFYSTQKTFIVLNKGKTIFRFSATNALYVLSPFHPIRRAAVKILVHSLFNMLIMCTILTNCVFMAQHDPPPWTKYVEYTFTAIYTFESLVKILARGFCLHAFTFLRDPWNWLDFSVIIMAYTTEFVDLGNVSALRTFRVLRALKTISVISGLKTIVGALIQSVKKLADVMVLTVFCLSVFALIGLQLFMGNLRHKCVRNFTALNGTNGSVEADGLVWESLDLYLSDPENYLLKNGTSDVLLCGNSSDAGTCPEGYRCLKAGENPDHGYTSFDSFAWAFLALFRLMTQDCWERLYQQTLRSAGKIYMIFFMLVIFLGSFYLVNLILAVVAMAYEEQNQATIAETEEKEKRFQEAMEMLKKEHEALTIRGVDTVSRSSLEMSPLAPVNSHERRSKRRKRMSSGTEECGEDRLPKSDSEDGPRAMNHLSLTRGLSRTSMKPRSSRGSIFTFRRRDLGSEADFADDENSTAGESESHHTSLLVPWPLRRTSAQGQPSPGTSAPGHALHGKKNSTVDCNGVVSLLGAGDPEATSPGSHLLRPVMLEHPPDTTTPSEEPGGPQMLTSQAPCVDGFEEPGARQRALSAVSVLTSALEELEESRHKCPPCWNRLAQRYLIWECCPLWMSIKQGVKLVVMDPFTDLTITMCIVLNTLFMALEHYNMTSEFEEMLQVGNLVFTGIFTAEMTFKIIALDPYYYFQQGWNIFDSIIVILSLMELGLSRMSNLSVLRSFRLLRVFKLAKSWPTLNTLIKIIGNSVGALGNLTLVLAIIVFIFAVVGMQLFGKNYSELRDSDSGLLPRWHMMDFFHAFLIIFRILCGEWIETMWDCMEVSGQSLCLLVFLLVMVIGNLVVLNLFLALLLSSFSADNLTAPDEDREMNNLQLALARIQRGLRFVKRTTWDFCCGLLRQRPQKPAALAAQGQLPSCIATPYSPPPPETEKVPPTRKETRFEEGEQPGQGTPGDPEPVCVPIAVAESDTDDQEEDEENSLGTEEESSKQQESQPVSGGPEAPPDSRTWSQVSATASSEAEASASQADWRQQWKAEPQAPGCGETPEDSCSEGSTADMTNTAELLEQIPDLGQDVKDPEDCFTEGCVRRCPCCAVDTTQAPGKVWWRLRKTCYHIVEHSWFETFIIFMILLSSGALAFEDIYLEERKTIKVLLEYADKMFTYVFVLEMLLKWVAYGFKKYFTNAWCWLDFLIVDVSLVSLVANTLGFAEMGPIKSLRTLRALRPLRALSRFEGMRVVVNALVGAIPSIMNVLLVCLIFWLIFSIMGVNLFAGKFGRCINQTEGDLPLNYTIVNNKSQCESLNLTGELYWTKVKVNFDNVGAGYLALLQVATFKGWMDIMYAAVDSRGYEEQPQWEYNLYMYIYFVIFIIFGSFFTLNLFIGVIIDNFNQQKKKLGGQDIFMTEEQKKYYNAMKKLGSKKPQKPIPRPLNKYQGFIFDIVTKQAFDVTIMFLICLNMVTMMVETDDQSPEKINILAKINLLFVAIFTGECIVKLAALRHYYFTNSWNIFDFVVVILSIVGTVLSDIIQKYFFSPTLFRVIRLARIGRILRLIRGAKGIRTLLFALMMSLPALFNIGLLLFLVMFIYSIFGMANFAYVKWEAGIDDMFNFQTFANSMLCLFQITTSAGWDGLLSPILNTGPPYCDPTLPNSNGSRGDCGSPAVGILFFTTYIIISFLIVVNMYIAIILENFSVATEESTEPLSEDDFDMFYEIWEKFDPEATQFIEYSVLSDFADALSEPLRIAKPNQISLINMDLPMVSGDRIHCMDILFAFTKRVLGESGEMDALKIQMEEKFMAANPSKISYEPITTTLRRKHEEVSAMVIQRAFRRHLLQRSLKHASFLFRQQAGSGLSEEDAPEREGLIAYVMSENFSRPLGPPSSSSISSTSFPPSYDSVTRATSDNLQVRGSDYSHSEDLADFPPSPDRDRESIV
- protocolSummary: Peak INa at PT, manual patch-clamp, HEK293 cells
- Assay type: cell-based
propertyLabel: pIC50
Answer as the number alone; pIC50 is minus log10 of concentration in mol/L.

The molecule CCN(CC)CCCC(C)Nc1ccnc2cc(Cl)ccc12 (centres unmarked) showed pIC50 equal to 4.41

Per the records, this molecule ( CCN(CCO)CCCC(C)Nc1ccnc2cc(Cl)ccc12 (centres unmarked) [hydroxychloroquine] ) has pIC50 equal to 4.37

====

- Tested on: hERG (peak IKr)
- protocolSummary: hiPSC-CM β-escin-perforated voltage-clamp: peak IKr
- Format: cell-based, human
- experimentalContext: human
propertyLabel: activity at 5 µM
Respond with the figure and its unit, in that order.

# activity at 5 µM (compound: CCN(CC)CCCC(C)Nc1ccnc2cc(Cl)ccc12 (stereo not shown) [chloroquine] ) is 37.2%

====

- measuredTarget: hNav1.5 (Homo sapiens, UniProt Q14524)
- protocolSummary: Peak INa in presence of ATX-II 20 nM at RT, HEK293 cells
- experimentalContext: INa peak IC50, hNav1.5, ATX-II 20 nM, Hill fit
# pIC50 listing for each entry below
pIC50 (log units): -log10 of the concentration in mol/L.

[
  {
    "compound": "CCN(CC)CCCC(C)Nc1ccnc2cc(Cl)ccc12 (centres unmarked) [chloroquine]",
    "measuredTarget": "hNav1.5 (Homo sapiens, UniProt Q14524)",
    "pIC50": 3.80
  }
]

Next compound, please.
Value of pIC50 reported for the compound CCN(CCO)CCCC(C)Nc1ccnc2cc(Cl)ccc12 (centres unmarked) [hydroxychloroquine] is 4.02

====

- measuredTarget: hERG1 (Homo sapiens)
- Sequence (Q12809 whole entry): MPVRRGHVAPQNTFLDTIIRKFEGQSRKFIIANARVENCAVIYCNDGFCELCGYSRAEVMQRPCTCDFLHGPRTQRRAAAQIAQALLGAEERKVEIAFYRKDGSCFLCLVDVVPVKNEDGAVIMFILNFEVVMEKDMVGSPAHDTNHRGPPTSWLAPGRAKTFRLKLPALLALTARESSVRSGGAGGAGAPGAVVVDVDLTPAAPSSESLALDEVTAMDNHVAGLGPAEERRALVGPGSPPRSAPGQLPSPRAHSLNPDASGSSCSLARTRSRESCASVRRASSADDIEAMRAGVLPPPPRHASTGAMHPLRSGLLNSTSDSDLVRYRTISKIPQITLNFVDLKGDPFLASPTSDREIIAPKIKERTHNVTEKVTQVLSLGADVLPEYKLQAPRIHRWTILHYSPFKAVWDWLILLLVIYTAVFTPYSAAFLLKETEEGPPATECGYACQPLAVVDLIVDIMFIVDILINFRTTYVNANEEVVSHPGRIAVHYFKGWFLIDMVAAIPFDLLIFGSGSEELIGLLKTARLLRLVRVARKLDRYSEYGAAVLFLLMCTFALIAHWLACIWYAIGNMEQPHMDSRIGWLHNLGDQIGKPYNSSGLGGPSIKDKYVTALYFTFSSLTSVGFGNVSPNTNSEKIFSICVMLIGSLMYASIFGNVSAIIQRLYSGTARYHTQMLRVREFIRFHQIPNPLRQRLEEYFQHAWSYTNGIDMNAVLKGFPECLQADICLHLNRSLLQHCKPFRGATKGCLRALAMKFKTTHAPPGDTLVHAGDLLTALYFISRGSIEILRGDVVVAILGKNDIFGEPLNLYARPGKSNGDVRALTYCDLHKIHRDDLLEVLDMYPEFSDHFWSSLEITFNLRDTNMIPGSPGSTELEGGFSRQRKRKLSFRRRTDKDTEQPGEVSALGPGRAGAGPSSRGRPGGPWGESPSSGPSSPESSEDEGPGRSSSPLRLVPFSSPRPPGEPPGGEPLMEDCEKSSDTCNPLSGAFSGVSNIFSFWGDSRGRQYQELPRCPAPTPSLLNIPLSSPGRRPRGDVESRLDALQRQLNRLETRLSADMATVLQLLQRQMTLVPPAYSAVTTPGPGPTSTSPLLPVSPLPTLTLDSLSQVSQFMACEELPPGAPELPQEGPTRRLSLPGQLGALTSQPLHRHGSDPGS
- protocolSummary: Manual whole-cell patch-clamp, standard 2-step hERG protocol at RT, HEK293T
propertyLabel: IC50 (µM)
Give a bare numeral; the unit µM is implied.

get_value(item= CCN(CCO)CCCC(C)Nc1ccnc2cc(Cl)ccc12 (stereo not shown) [hydroxychloroquine] , readout=IC50) returns 4.79

====

- System: steady funny current (If) in Pluricyte cardiomyocytes
- protocolSummary: hiPSC-CM β-escin-perforated voltage-clamp: steady funny current
- Format: cell-based
- experimentalContext: Homo sapiens, Cardiomyocyte, read-out: If IC50
propertyLabel: IC50

[
  {
    "molecule": "CCN(CC)CCCC(C)Nc1ccnc2cc(Cl)ccc12 (centres unmarked)",
    "propertyLabel": "IC50",
    "valueObserved": "> 162 µM"
  }
]

In the following, a different molecule is considered.
CCN(CCO)CCCC(C)Nc1ccnc2cc(Cl)ccc12 (centres unmarked) [hydroxychloroquine] yielded IC50 of > 990 µM

====

pIC50 for assorted compounds
- measuredTarget: hKv7.1+hMinK (Homo sapiens)
- protocolSummary: IKs double-step voltage protocol, HEK293 cells
- Format: cell-based
pIC50: −log10 of the molar value.

[
  {
    "compound": "CCN(CCO)CCCC(C)Nc1ccnc2cc(Cl)ccc12 (centres unmarked) [hydroxychloroquine]",
    "pIC50": "< 4.00"
  }
]

Could you now consider this next compound?
For this compound ( CCN(CC)CCCC(C)Nc1ccnc2cc(Cl)ccc12 (centres unmarked) ), measured pIC50 is < 4.00

Data provenance is paper PMC8590616.
